System: RPMI-8226 leukemia
Assay Protocol: NCI tumour cell line growth inhibition, 48 h
Measured Endpoint: TGI

Nc1ccc(-c2nc3ccc(F)cc3s2)cc1I : > 100 µM
N#Cc1c(NC(=O)c2ccccc2F)sc2c1CCCC2 : > 25 µM
CSc1c(C#N)c(S)n(-c2ccc(Cl)cc2)c(=O)c1C#N : > 100 µM

Next:
Consider the compound `c1ccc(C2CCCCC2)c(OCCCCCN2CCNCC2)c1` and give its measured TGI. 4.75 µM

* * *

System: M14 melanoma
Assay Protocol: NCI tumour cell line growth inhibition, 48 h
Measured Endpoint: TGI

CSC(=N)N1N=C2/C(=C/c3ccccc3)CCC[C@H]2[C@H]1c1ccccc1 : 14.8 µM

Consider the molecule C=C(CCC=C(C)C)C1CC=C(C)CC1 (stereo not drawn) and give its measured TGI. > 100 µM

Consider the molecule `O=C(O)CCCc1ccccc1` and give its measured TGI. > 1000 µM

Consider the molecule `CN(C)CCCn1c2c(c3cc4c(cc3c1=O)OCO4)C(=O)c1ccccc1-2` and give its measured TGI. 1.38 µM

Consider the molecule `CCCC(=O)OCOC(=O)N(C)N=Nc1ccc(C(=O)OCC)cc1` and give its measured TGI. > 100 µM

Consider the molecule `O=C1/C(=C/c2ccccc2O)N=C(c2ccccc2)N1c1cc(C(F)(F)F)ccc1Cl` and give its measured TGI. > 100 µM

Consider the molecule `Cc1ccc(/N=N/C(=NNC(=O)c2ccc(C)cc2)c2ccc(N(C)C)cc2)cc1` and give its measured TGI. 60.4 µM

Consider the molecule `S=C(N/N=C/c1ccccn1)N1CCCCCC1` and give its measured TGI. 0.251 µM

Consider the molecule `COc1ccc(NC(=O)C(=O)Cc2nc3ccc(C(=O)c4ccccc4)cc3[nH]c2=O)c([N+](=O)[O-])c1` and give its measured TGI. > 100 µM

Consider the molecule `O=S(=O)(O)c1ccc2cc(N=Nc3c(O)ccc4ccccc34)ccc2c1` and give its measured TGI. > 100 µM

Consider the molecule `O=c1[nH]c2nc[nH]c2c(=O)n1C1CCCCC1` and give its measured TGI. > 100 µM

* * *

Test system: OVCAR-8 ovarian
Assay Protocol: NCI tumour cell line growth inhibition, 48 h
Measured Endpoint: TGI

# example entries with known answers
CC(=O)N(O)c1ccc(/C=C/c2ccccc2)cc1 : > 52.5 µM
CN1CCCC1c1cccnc1.O=C(O)c1ccccc1O.O=C([O-])c1ccccc1[OH2+].O=C([O-])c1ccccc1[OH2+].[Mn+2] (stereo not drawn) : > 100 µM

Next:
Consider the compound `COc1ccc(/C=C/c2cc(OC)c(OCc3ccccc3)c(OC)c2)cc1` and give its measured TGI. > 100 µM

* * *

This section presents compounds with their documented TGI values.
Tested on: HOP-92 NSCLC
Assay Protocol: NCI tumour cell line growth inhibition, 48 h
Output spec: scalar in µM, unitless text.

# example entries with known answers
Fc1ccc2nc(-c3nc(-c4ccccc4)n4ccccc34)[nH]c2c1 : 6.42
CCN(Cc1ccc(F)cc1)c1ccc(CO)c(C(F)(F)F)c1 : 17.8
O=C(/C=C(\Nc1ccccc1O)c1ccc(Br)cc1)C(Cl)(Cl)Cl : 15.4

Next:
Consider the compound C=CCN(CC=C)C(=O)[C@H](CC)[C@@H]1CC[C@@H](C)[C@@H]([C@H](C)[C@@H](O)[C@@H](C)C(=O)[C@H](CC)C2O[C@]3(C=C[C@@H](O)[C@]4(CC[C@@](C)([C@H]5CC[C@](O)(CC)[C@H](C)O5)O4)O3)[C@H](C)C[C@@H]2C)O1 (some centres undefined) and give its measured TGI. 4.31

* * *

System: SK-MEL-5 melanoma
Assay Protocol: NCI tumour cell line growth inhibition, 48 h; in the data active means GI50 below about 0.43 µM; inactive means the rest
Answer with one of the outcomes given here: active, inactive

Please review the entries below; each comes with its answer.
S=C(NCc1ccc2c(c1)OCO2)N1CCN(c2ncnc3c2oc2ccccc23)CC1 : inactive
CC1CCN(CCOc2ccc(CNc3ccc4nc(CCC5CCCCC5)[nH]c4c3)cc2)CC1 : inactive
CC(=O)OCC(CC[CH2][Sn]([Cl])([Cl])[c]1ccccc1)OC(C)=O (centres undefined) : inactive
CN1CCCC1c1cccnc1.O=C(O)c1ccccc1O.O=C([O-])c1ccccc1[OH2+].O=C([O-])c1ccccc1[OH2+].[Mn+2] (centres undefined) : inactive
Clc1nc(Cl)c2ncn(CCOCCn3cnc4c(Cl)nc(Cl)nc43)c2n1 : active
N#Cc1cc2c(cc1Cl)Sc1nnc(Nc3cccc4ccccc34)n1S2(=O)=O : inactive
O=S(=O)(NCCCNc1nccc(-c2c(-c3ccc(F)cc3)nc3sccn23)n1)c1ccc(F)cc1 : inactive
Cn1c(C(=O)c2cccc3ccccc23)nc2ccccc21 : inactive

Next:
Hi, do you know how `O=C(c1ccco1)c1c(C(F)(F)F)n([O-])c2cc(F)c(F)cc2[n+]1=O` came out in this test? active

* * *

Test system: HL-60(TB) leukemia
Assay Protocol: NCI tumour cell line growth inhibition, 48 h
This section presents compounds with their documented TGI values.

COc1c(CC=C(C)C)c(O)c(C(CC(C)C)c2c(O)c(CC=C(C)C)c(O)c(C(C)=O)c2O)c(O)c1C(C)=O (stereo not given) : 3.28 µM

Consider the compound Cc1ccc(C2=Nc3ccccc3SC(c3cccc4c3OCO4)C2)cc1 (stereo not given) and give its measured TGI. 39 µM

Consider the compound Cc1nnc(N/N=C(/C(=O)C(C#N)c2ccc(Cl)cc2)C(C#N)c2ccc(Cl)cc2)n1N (stereo not given) and give its measured TGI. 55.4 µM

Consider the compound `O=C1/C(=C/c2ccccc2O)N=C(c2ccccc2)N1c1cc(C(F)(F)F)ccc1Cl` and give its measured TGI. > 100 µM

Consider the compound `c1cncc(CSc2ncnc3nc[nH]c23)c1` and give its measured TGI. > 100 µM

* * *

Test system: XF 498 CNS
Assay Protocol: NCI tumour cell line growth inhibition, 48 h
Measured Endpoint: TGI

# example entries with known answers
CC(=O)CC(=O)CCC(=O)Nc1cccc(C(F)(F)F)c1 : > 100 µM
O=c1ccn(/C=C/C(O)C(O)CO)c(=O)[nH]1 (stereo not drawn) : > 100 µM

Consider the compound Cc1nnc(N/N=C(/C(=O)C(C#N)c2ccc(Cl)cc2)C(C#N)c2ccc(Cl)cc2)n1N (stereo not drawn) and give its measured TGI. 46.6 µM

* * *

Test system: SK-MEL-28 melanoma
Assay Protocol: NCI tumour cell line growth inhibition, 48 h
Measured Endpoint: TGI

# example entries with known answers
C[C@H](NC(=O)CNC(=O)CCCCCC(=O)NCC(=O)N[C@@H](C)C(=O)OCc1ccccc1)C(=O)OCc1ccccc1 : > 100 µM
CC1CCC2C(CN(CC3=C(C(F)(F)F)OC4OC5(C)CCC6C(C)CCC3C46OO5)CC3=C(C(F)(F)F)OC4OC5(C)CCC6C(C)CCC3C46OO5)=C(C(F)(F)F)OC3OC4(C)CCC1C32OO4 (centres undefined) : > 100 µM
COC1=C(OC)C(=O)C(CCCCCCCCCCO)=C(C)C1=O : 26.5 µM

Consider the compound `CCCC(=O)OCOC(=O)N(C)N=Nc1ccc(C(=O)OCC)cc1` and give its measured TGI. > 100 µM

Consider the compound Cc1ccc(C2=Nc3ccccc3SC(c3cccc4c3OCO4)C2)cc1 (centres undefined) and give its measured TGI. 32.9 µM

Consider the compound O=C(Nc1ccc2[nH]c(C(=O)N3CC(CCl)c4ccc([N+](=O)[O-])cc43)cc2c1)c1cc2ccccc2o1 (centres undefined) and give its measured TGI. > 1100 µM

Consider the compound CC(C)=CCC/C(C)=C/CCC1(C)C=Cc2c(c3ccccc3oc2=O)O1 (centres undefined) and give its measured TGI. 29.9 µM

Consider the compound CC(N)CC(=O)O (centres undefined) and give its measured TGI. > 5000 µM

Consider the compound `COc1cc(-c2cc(=O)c3ccccc3[nH]2)cc(OC)c1OC` and give its measured TGI. > 75 µM

* * *

Test system: LXFL 529 NSCLC
Assay Protocol: NCI tumour cell line growth inhibition, 48 h
Measured Endpoint: TGI

Consider the molecule `O=c1ccc2ccccc2c2ccccc12` and give its measured TGI. 10.4 µM

* * *

System: M14 melanoma
Assay Protocol: NCI tumour cell line growth inhibition, 48 h
Measured Endpoint: GI50

COc1ccc(-c2c3c(N)c4c(nc3nc3c2c(C)nn3-c2ccccc2)CCCC4)cc1 : 3.74 µM
Nc1nc2ccccc2c2c1S(=O)(=O)c1ccc(Cl)cc1C2=O : 2.45 µM
O=C1/C(=C/c2ccccc2[N+](=O)[O-])COc2ccc(O)cc21 : 1.9 µM
COC1=C(OC)[C@]2(OC)c3c(O)c(OC)c4c(c3O[C@@]23O[C@@H](c2ccccc2)CC=C3C1=O)[C@@H](OC)C[C@H](c1ccccc1)O4 : 0.516 µM
COc1ccc2nc3cc(Cl)ccc3c(N3CCN(c4ccnc(N5CCN(C)CC5)n4)CC3)c2c1 : 2.04 µM

Next:
Consider the compound C=CC[N+]1(CC)CCN=C1CCCCCCCCCCCCCCCCC (stereo not given) and give its measured GI50. 0.35 µM
